Target: dopamine D4 receptors in cloned human dopamine receptor subtype 4.2 membranes (Homo sapiens, UniProt P21917, DEL271-302)
Sequence (P21917 with tags, fused parts or gaps DEL271-302): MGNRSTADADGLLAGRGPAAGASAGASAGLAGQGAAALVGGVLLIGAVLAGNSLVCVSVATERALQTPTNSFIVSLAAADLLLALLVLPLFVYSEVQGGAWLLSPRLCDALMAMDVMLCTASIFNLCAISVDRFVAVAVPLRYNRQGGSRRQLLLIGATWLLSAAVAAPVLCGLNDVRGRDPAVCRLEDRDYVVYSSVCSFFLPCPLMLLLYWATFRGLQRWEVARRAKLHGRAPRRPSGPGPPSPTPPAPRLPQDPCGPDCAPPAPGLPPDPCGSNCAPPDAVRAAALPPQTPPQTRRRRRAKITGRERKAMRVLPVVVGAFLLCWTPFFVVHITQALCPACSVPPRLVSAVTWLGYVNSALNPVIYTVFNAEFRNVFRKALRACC
Assay: 3H-YM-09151-2 binding (affinity for dopamine D4 receptors)
Conditions: 3H-YM-09151-2, cloned human D4.2 membranes; * means that the test result is preliminary; read-out: D4-bind. IC50
pIC50: −log10 of the molar value.
Would you mind labelling by pIC50? At or over 8 is TRUE, under is FALSE.

Example results:
c1ccc2c(c1)CC(CCN1CCN(c3cccc4[nH]ccc34)CC1)C2 [Compound 25a] :: TRUE
CC(=O)Nc1ccc2c(c1)C(CCCCN1CC=C(c3c[nH]c4cc(Cl)ccc34)CC1)CC2 (centres unmarked) [Compound 18e] :: FALSE
Clc1ccc2c(C3CCN(CCC4Cc5ccccc5C4)CC3)c[nH]c2c1 [Compound 21f] :: TRUE

// query Check if pIC50 >= 8 (inclusive). Item: c1ccc2c(c1)CC(CCN1CCC(n3ccc4ccccc43)CC1)C2 [Compound 29b]
// result TRUE
